These data points were gathered from PubChem BioAssay.

- PROTOCOL TEXT: ovarian cancer cell viability with rucaparib, profiling panel, oncology-focused library, rucaparib conditional (AID 1508598)
- CONDITIONS USED: patient-derived ovarian cancer cells, CellTiter-Glo viability, 144 h; at 0.0781 µM; OCI-P5x cells; with rucaparib 20 µM; 100% = cells with rucaparib alone
Calls of active or inactive are those of the source.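 How the source made its calls: active means normalized viability below 100% at a tested concentration; inactive means the rest.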
Outcomes: T (active), F (inactive)

- CCc1ccc(CCOc2ccc(CC3SC(=O)NC3=O)cc2)nc1 (stereo not drawn): F
- CC(C)n1c(/C=C/[C@@H](O)C[C@@H](O)CC(=O)O)c(-c2ccc(F)cc2)c2ccccc21: T
- Cc1ccc(Nc2nccc(N(C)c3ccc4c(C)n(C)nc4c3)n2)cc1S(N)(=O)=O: T

###

- PROTOCOL TEXT: inhibition of 3D7 malaria parasite growth – strain 3D7 (AID 2306);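 further: 0% = DMSO wells and 100% = chloroquine plus artemisinin control wells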
- CONDITIONS USED: P. falciparum 3D7 erythrocytic growth, LDH absorbance, 72 h; at 2 µM; hits give high values
OBSERVED PROPERTY: growth inhibition (%)

• C=C[C@H]1CN2CC[C@H]1C[C@@H]2[C@@H](O)c1ccnc2ccc(OC)cc12 = 98
• COc1ccc(C(C(=O)NC2CCN(C[C@H](O)c3ccnc4ccc(OC)cc34)CC2)N2CCN(Cc3ccccc3)CC2)cc1 (some centres undefined) = 100
• O=C(Nc1ccc(C(F)(F)F)cc1)Nc1ccccc1N1CCNCC1 = 94
• CC(=O)N/N=C/[C@H](CCc1ccccc1)NC(=O)[C@H](CC(C)C)NC(=O)c1ccc(OCCN2CCOCC2)cc1 = 96
• CC(C)C(C)(C#N)NC(=O)CSc1nc2ccc([N+](=O)[O-])cc2s1 (centres undefined) = 95
• Cc1ccc(NC(=O)NCCCCCN2CCC(c3c[nH]c4ccccc34)CC2)cc1I = 94
• CC1(CCc2ccccc2)N=C(N)N=C(N)C1c1ccc(Cl)c(Cl)c1 (centres undefined) = 98
• COc1ccc(NC(=O)c2cc(-c3ccc(NC(C)=O)cc3)cnc2N)cc1 = 98
• OC(CNc1ccnc(Nc2cccc(Cl)c2)n1)c1cccc(C(F)(F)F)c1 (centres undefined) = 101

###

- PROTOCOL TEXT: HCT116 colon cancer cell growth inhibition, primary screen, CellTiter-Glo luminescence, NPC library (AID 1117342)
- CONDITIONS USED: at 20 µM (top of the series)
# maps each entry to its inhibition of viability
OBSERVED PROPERTY: inhibition of viability (%)

• CCOCCn1c(N2CCCN(C)CC2)nc2ccccc21 = 8.5
• COc1ccc(O)cc1 = -4.9
• O=c1[nH]c2cc(C(F)(F)F)c(N3CCOCC3)cc2n(CP(=O)(O)O)c1=O = 6.1
• CCO[C@H](Cc1ccc(OCCc2ccc(OS(C)(=O)=O)cc2)cc1)C(=O)O = -7.7
• CCCCC(CC)COC(=O)c1ccccc1O (configuration not stated) = 2.2
• Cc1ncc(C[n+]2csc(CCO)c2C)c(N)n1 = 5
• CC(C)NC[C@@H](O)COc1ccc(CC(N)=O)cc1 = 1.1

###

- PROTOCOL TEXT: decreased DLD-1 cellular survival, CellTiter-Glo luminescent readout, NPC compound collection, primary HTS (AID 1117346)
- CONDITIONS USED: DLD-1 viability, CellTiter-Glo luminescence; at 20 µM (top of the series)
The source made the active and inactive calls.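 The calls were made as follows: active = compounds that lower survival of DLD-1 colon cancer cells in the luminescence readout, no cutoff given; inactive = the rest.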
Outcomes: active, inactive

* O=P(O)(O)C(Cl)(Cl)P(=O)(O)O | inactive
* CC1=C(C(=O)OC(C)C)C(c2cccc([N+](=O)[O-])c2)C(C(=O)OC2CN(C(c3ccccc3)c3ccccc3)C2)=C(N)N1 (configuration not stated) | active
* O=C(Oc1ccccc1C(=O)O)c1ccccc1O | inactive
* NC(=O)NS(=O)(=O)c1ccc(N)cc1 | inactive
* CC(=O)[C@H]1CC[C@H]2[C@@H]3CC=C4C[C@@H](O)CC[C@]4(C)[C@H]3CC[C@]12C | inactive
* CCCCc1ncc(/C=C(\Cc2cccs2)C(=O)O)n1Cc1ccc(C(=O)O)cc1 | inactive
* O=C(Nc1ccccc1)OCC(CN1CCCCC1)OC(=O)Nc1ccccc1 (configuration not stated) | inactive
* COCC(=O)Nc1c(I)c(C(=O)NCC(O)CO)c(I)c(C(=O)N(C)CC(O)CO)c1I (configuration not stated) | inactive
* COC(=O)C(c1ccccc1Cl)N1CCc2sccc2C1 (configuration not stated) | inactive
* COc1cc2c(cc1OC)[C@@H]1CC(=O)[C@@H](CC(C)C)CN1CC2 | inactive
* N=C(N)c1ccc2cc(OC(=O)c3ccc(N=C(N)N)cc3)ccc2c1 | inactive
* C=CCc1cc(OC)c(O)c(C(=O)NCCO)c1 | inactive
* CCN(CC)CCCN(c1ccccc1)C1Cc2ccccc2C1 | inactive
* CC(C)c1c(C(=O)Nc2ccccc2)c(-c2ccccc2)c(-c2ccc(F)cc2)n1CC[C@@H](O)C[C@@H](O)CC(=O)O | active
* CN(C(=O)CN(CCO)CC(=O)N(C)C(C)(C)Cc1ccccc1)C(C)(C)Cc1ccccc1 | active
* N[C@@H](COP(=O)(O)O)C(=O)O | inactive
* CCCCNc1ccc(C(=O)OCCOCCOCCOCCOCCOCCOCCOCCOCCOC)cc1 | inactive
* CC(C)(C)C(=O)Oc1ccc(S(=O)(=O)Nc2ccccc2C(=O)NCC(=O)O)cc1 | inactive
* CC(=O)N(c1onc(C)c1C)S(=O)(=O)c1ccc(N)cc1 | inactive
* CN(C(=O)c1c(O)c2ccccc2n(C)c1=O)c1ccccc1 | inactive
* O=C1NCCN1CCN1CCC(c2cn(-c3ccc(F)cc3)c3ccc(Cl)cc23)CC1 | active
* CCCC(=O)O[C@]1(C(=O)CO)CC[C@H]2[C@@H]3CCC4=CC(=O)CC[C@]4(C)[C@H]3[C@@H](O)C[C@@]21C | inactive
* CC(COc1ccccc1)NN (configuration not stated) | inactive
* O=C(OC1C[C@H]2CC[C@@H](C1)[N+]21CCCC1)C(O)(c1ccccc1)c1ccccc1 (some centres not stated) | inactive
* O=C1[O][Bi][O]c2ccccc21 | inactive
* CC(=O)N[C@@H](CCC(N)=O)C(=O)O | inactive
* NC(=O)c1cc[n+](CC2=C(C(=O)[O-])N3C(=O)[C@@H](NC(=O)Cc4cccs4)[C@H]3SC2)cc1 | inactive
* COc1ccc2c(c1)C(=O)N(CCc1ccc(S(=O)(=O)NC(=O)NC3CCCCC3)cc1)C(=O)C2(C)C | active
* CCCCCCOC(=O)NC(=N)c1ccc(NCc2nc3cc(C(=O)N(CCC(=O)OCC)c4ccccn4)ccc3n2C)cc1 | active
* C=CCN1C[C@H](C(=O)N(CCCN(C)C)C(=O)NCC)C[C@@H]2c3cccc4[nH]cc(c34)C[C@H]21 | active
* CC(C)=CCC/C(C)=C/CO | inactive
* COc1cc2c(c(OC)c1OC)-c1ccc(OC)c(=O)cc1[C@@H](NC(C)=O)CC2 | active
* CS(=O)(=O)CCNCc1ccc(-c2ccc3ncnc(Nc4ccc(OCc5cccc(F)c5)c(Cl)c4)c3c2)o1 | active
* O=C(O)c1nc(=O)[nH]c(=O)[nH]1 | inactive
* Cc1cc(-c2ccc(N=Nc3c(S(=O)(=O)O)cc4cc(S(=O)(=O)O)cc(N)c4c3O)c(C)c2)ccc1N=Nc1c(S(=O)(=O)O)cc2cc(S(=O)(=O)O)cc(N)c2c1O | inactive
* CCCCc1cc2ccccc2c(OCCN(C)C)n1 | inactive
* CC(O)CN(CCN(CC(C)O)CC(C)O)CC(C)O (configuration not stated) | inactive
* Cc1ccc(-c2ncc(Cl)cc2-c2ccc(S(C)(=O)=O)cc2)cn1 | inactive
* CC(=O)Nc1ccc(C(=O)O)cc1 | inactive
* Cc1c(-c2ccccc2)oc2c(C(=O)OCCN3CCCCC3)cccc2c1=O | inactive
* Cc1cc(NS(=O)(=O)c2ccc(N)cc2)no1 | inactive
* COc1ccc2cc([C@H](C)C(=O)O)ccc2c1 | inactive

###

- PROTOCOL TEXT: decreased DLD-1 cellular survival, CellTiter-Glo luminescent readout, NPC compound collection, primary HTS (AID 1117346)
- CONDITIONS USED: DLD-1 viability, CellTiter-Glo luminescence; at 20 µM (top of the series)
Calls of active or inactive are those of the source.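 The calls were made as follows: active = compounds that lower survival of DLD-1 colon cancer cells in the luminescence readout, no cutoff given; inactive = the rest.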
Outcomes: active, inactive

• CC1=C(/C=C/C(C)=C/C=C/C(C)=C/C(=O)Nc2ccc(O)cc2)C(C)(C)CCC1 = active
• Cc1nc(Nc2ncc(C(=O)Nc3c(C)cccc3Cl)s2)cc(N2CCN(CCO)CC2)n1 = active
• CSCC[C@H](NC(=O)[C@H](Cc1c[nH]c2ccccc12)NC(=O)CCNC(=O)OC(C)(C)C)C(=O)N[C@@H](CC(=O)O)C(=O)N[C@@H](Cc1ccccc1)C(N)=O = inactive
• O=C(O)COCCN1CCN(C(c2ccccc2)c2ccc(Cl)cc2)CC1 (configuration not stated) = inactive
• NC(=O)c1ncn([C@@H]2O[C@H](CO)[C@@H](O)[C@H]2O)c1N = inactive
• CCOC(=O)[C@H](CCc1ccccc1)N[C@H]1CS[C@H](c2cccs2)CN(CC(=O)O)C1=O = inactive
• C1COC(NC(C2CC2)C2CC2)=N1 = inactive
• CC[N+](C)(CC)CCOC(=O)C1c2ccccc2Oc2ccccc21 = inactive
• CCCC(=O)Nc1ccc(OCC(O)CNC(C)C)c(C(C)=O)c1 (configuration not stated) = inactive
• CC1CC(OC(=O)c2ccccc2O)CC(C)(C)C1 (configuration not stated) = inactive
• CC(O)(P(=O)(O)O)P(=O)(O)O = inactive
• Cc1cc(CC(C)CC(C)(C)C)n(O)c(=O)c1 (configuration not stated) = active
• COc1cccc(N(C)C(=S)Oc2ccc3c(c2)CCCC3)n1 = active
• CC(C)(C)CC(C)(C)c1cc(Cc2cc(C(C)(C)CC(C)(C)C)cc(-n3nc4ccccc4n3)c2O)c(O)c(-n2nc3ccccc3n2)c1 = inactive
• CCO[C@H](Cc1ccc(OCCc2ccc(OS(C)(=O)=O)cc2)cc1)C(=O)O = inactive
• CC(=O)N(CC(O)CO)c1c(I)c(C(=O)NCCO)c(I)c(C(=O)NCC(O)CO)c1I (configuration not stated) = inactive
• Cc1cc(-n2nc3ccc(Cl)cc3n2)c(O)c(C(C)(C)C)c1 = inactive
• CC(C)NC[C@@H](O)COc1ccc(CC(N)=O)cc1 = inactive
• C[C@@H]1C[C@H]2[C@@H]3CCC4=CC(=O)C=C[C@]4(C)[C@@]3(Cl)[C@@H](O)C[C@]2(C)[C@@]1(OC(=O)c1ccco1)C(=O)CCl = active
• CNCc1ccccc1 = inactive
• OC[C@@H](O)[C@@H](O)[C@H](O)[C@H](O)CO = inactive
• OC1(c2ccc(Cl)c(C(F)(F)F)c2)CCN(CCCC(c2ccc(F)cc2)c2ccc(F)cc2)CC1 = active
• CCCCC(=O)O[C@]1(C(=O)CO)CC[C@H]2[C@@H]3CCC4=CC(=O)CC[C@]4(C)[C@H]3[C@@H](O)C[C@@]21C = inactive
• CCCCN(CCCC)CC(O)c1cc(Cl)cc2c1-c1ccc(Cl)cc1/C2=C/c1ccc(Cl)cc1 (configuration not stated) = inactive
• COCC(=O)O[C@]1(CCN(C)CCCc2nc3ccccc3[nH]2)CCc2cc(F)ccc2[C@@H]1C(C)C = active
• CCC1NC(=O)c2cc(S(N)(=O)=O)c(Cl)cc2N1 (configuration not stated) = inactive
• COc1ccc(/C=N/NC(=O)c2ccncc2)cc1OC = inactive
• O=C1c2ccccc2C(=O)C1c1ccc(Br)cc1 = inactive
• CN1CCC[C@@H]1Cc1c[nH]c2ccc(CCS(=O)(=O)c3ccccc3)cc12 = inactive
• CC(C(=O)O)c1ccc2c(c1)Cc1cccnc1O2 (configuration not stated) = inactive
• CC(S)C(=O)NCC(=O)O (configuration not stated) = inactive
• C[C@@H](O)[C@H]1C(=O)N2C(C(=O)O)=C(SCCN=CN)C[C@H]12 = inactive
• CN1CCC(Nc2ncc3ncnc(Nc4ccc(F)c(Cl)c4)c3n2)CC1 = active
• Cc1ccc(Nc2c(F)cccc2Cl)c(CC(=O)O)c1 = inactive
• N#Cc1cc(NC(=O)C(=O)O)c(Cl)c(NC(=O)C(=O)O)c1 = inactive
• CN(C)C(=O)C(CCN1CCC(O)(c2ccc(Cl)cc2)CC1)(c1ccccc1)c1ccccc1 = active
• COc1ccc(CCN(C)CCCN2CCc3cc(OC)c(OC)cc3CC2=O)cc1OC = inactive
• C[N+](C)(C)CC(O)CC(=O)[O-] (configuration not stated) = inactive
• COCCOC(=O)C1=C(C)NC(C)=C(C(=O)OC/C=C/c2ccccc2)C1c1cccc([N+](=O)[O-])c1 (configuration not stated) = active
• O=C1OC2(c3ccc(O)cc3Oc3cc(O)ccc32)c2ccccc21 = inactive
• CC1(C)[C@@H]2CC[C@@]1(C)C(=O)C2 = inactive
• C#Cc1cccc(Nc2ncnc3cc(OCCOC)c(OCCOC)cc23)c1 = active
